src = BigSolDB 2.1

Conditions: in n-propanol, 328.95 K
REPORTED METRIC: solubility (mole fraction)
Answer with a number only.

Query block: Return reported solubility (mole fraction); argument: "c1ccc2c(c1)sc1ccccc12"
Result block: 0.0363

----------
Settings: in acetone, 308.15 K
REPORTED METRIC: solubility (mole fraction)
I'd appreciate a reply containing only the number, no unit.

Query block: # query: solubility (mole fraction) of entry "c1ccc2c(c1)sc1ccccc12"
Result block: 0.107

----------
Conditions: in n-octane, 308.25 K
REPORTED METRIC: solubility (mole fraction)
The response must contain the number and no unit.

Query block: Could you tell me which solubility (mole fraction) is on file for "c1ccc2c(c1)sc1ccccc12" ?
Result block: 0.0438

----------
Settings: in n-octane, 292.05 K
REPORTED METRIC: solubility (mole fraction)
// return a plain number; no unit text

Query block: Requested read-out: solubility (mole fraction). Entry: "c1ccc2c(c1)sc1ccccc12"
Result block: 0.0232

----------
Conditions: in decalin, 296.15 K
REPORTED METRIC: solubility (mole fraction)
Would you mind answering with just the numeric figure?

Query block: Suppose we examine the compound "c1ccc2c(c1)sc1ccccc12" ; what solubility (mole fraction) value has been reported?
Result block: 0.042

----------
Conditions: in decalin, 337.15 K
REPORTED METRIC: solubility (mole fraction)
Reply with the value as a number alone.

Query block: What value of solubility (mole fraction) has been reported for the following compound? "c1ccc2c(c1)sc1ccccc12"
Result block: 0.107

----------
Settings: in acetonitrile, 302.15 K
REPORTED METRIC: solubility (mole fraction)
Field format: numeric only.

Query block: Tell me the measured solubility (mole fraction) of "c1ccc2c(c1)sc1ccccc12" , please.
Result block: 0.0175

----------
Settings: in diethylene glycol, 309.95 K
REPORTED METRIC: solubility (mole fraction)

Query block: Need solubility (mole fraction), item "c1ccc2c(c1)sc1ccccc12"
Result block: 0.00093

----------
Conditions: in acetone, 300.15 K
REPORTED METRIC: solubility (mole fraction)
Answer as a number with no unit attached.

Query block: Query (molecule): "c1ccc2c(c1)sc1ccccc12" ; field requested: solubility (mole fraction)
Result block: 0.0769

----------
Conditions: in n-propanol, 300.15 K
REPORTED METRIC: solubility (mole fraction)
// no unit, no text: just the number

Query block: Which value of solubility (mole fraction) has been reported for "c1ccc2c(c1)sc1ccccc12" in the records?
Result block: 0.0099

----------
Details: in n-propanol, 307.85 K
REPORTED METRIC: solubility (mole fraction)
Note: the reply should be a number with no unit written.

Query block: I am curious: what solubility (mole fraction) value has been reported for "c1ccc2c(c1)sc1ccccc12" ?
Result block: 0.0143

----------
Conditions: in sulfolane, 327.75 K
REPORTED METRIC: solubility (mole fraction)

Query block: Item under review: "c1ccc2c(c1)sc1ccccc12" . Reported solubility (mole fraction)?
Result block: 0.185

----------
Conditions: in ethanol, 294.55 K
REPORTED METRIC: solubility (mole fraction)
Could you keep your reply to the number by itself?

Query block: Which solubility (mole fraction) reading was recorded for the compound "c1ccc2c(c1)sc1ccccc12" ?
Result block: 0.0062

----------
Details: in acetonitrile, 297.35 K
REPORTED METRIC: solubility (mole fraction)
Reply: number alone, nothing else.

Query block: Recorded solubility (mole fraction) of "c1ccc2c(c1)sc1ccccc12" , please.
Result block: 0.0143
